Values of IC50 reported for human Melanin concentrating hormone receptor 1 (MCH1r) (Homo sapiens, UniProt Q99705) appear below.
ASSAY ENDPOINT: IC50 (nM)

>>> value("O=C(COc1ccc(F)c(F)c1)NC1CCN(Cc2ccn(-c3ccc(C(F)(F)F)cc3)c2)C1 (stereo not drawn)")
27

A: COc1ccc(-n2ccc(CN3CCC(NC(=O)COc4cccc(Cl)c4)CC3)c2)cc1
B: O=C(COc1cccc(Cl)c1)NC1CCN(Cc2ccc(-c3ccc(Cl)cc3)o2)CC1
Higher IC50: A or B ? In your reply, give the label of the chosen option.
A
(A: 167 nM, B: 105 nM)

###

TARGET UNDER TEST: recombinant hMCHr (Homo sapiens)
Sequence (Q99705 whole entry): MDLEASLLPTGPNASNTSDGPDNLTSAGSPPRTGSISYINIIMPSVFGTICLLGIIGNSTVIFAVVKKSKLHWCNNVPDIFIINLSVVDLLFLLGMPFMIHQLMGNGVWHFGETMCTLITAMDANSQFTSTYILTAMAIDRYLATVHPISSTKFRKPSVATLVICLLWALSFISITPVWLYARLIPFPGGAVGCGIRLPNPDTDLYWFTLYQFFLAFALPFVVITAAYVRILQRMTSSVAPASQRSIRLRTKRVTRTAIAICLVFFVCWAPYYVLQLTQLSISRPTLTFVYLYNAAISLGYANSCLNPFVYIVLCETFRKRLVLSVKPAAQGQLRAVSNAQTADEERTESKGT
EXPERIMENTAL DETAILS: MCH1 functional assay ([35S]GTPγS binding, membranes with recombinant hMCHr)
REPORTED CONDITIONS: ED80 concentration of MCH, 45 min at 30° C., read-out: IC50 of antagonists in MCH1 functional assay
pIC50: −log10 of the molar value.
ASSAY ENDPOINT: pIC50

>>> value("COc1ccc(-n2ccc(CN3CCC(NC(=O)COc4cccc(Cl)c4)CC3)c2)cc1")
7.35

a: O=C(CCc1cccc(Cl)c1)NC1CCN(Cc2ccn(-c3ccc(C(F)(F)F)cc3)c2)CC1
b: O=C(COc1cccc(Cl)c1)NC1CCN(Cc2ccc(-c3ccc(Cl)cc3)o2)CC1
From the items above, decide which of a and b has the lower pIC50 reading. Write the label of whichever entry you select.
b
